# study.system: human PD-1 expressed on the cell surface (human, UniProt Q15116 25-288)
# Sequence (Q15116 25-288): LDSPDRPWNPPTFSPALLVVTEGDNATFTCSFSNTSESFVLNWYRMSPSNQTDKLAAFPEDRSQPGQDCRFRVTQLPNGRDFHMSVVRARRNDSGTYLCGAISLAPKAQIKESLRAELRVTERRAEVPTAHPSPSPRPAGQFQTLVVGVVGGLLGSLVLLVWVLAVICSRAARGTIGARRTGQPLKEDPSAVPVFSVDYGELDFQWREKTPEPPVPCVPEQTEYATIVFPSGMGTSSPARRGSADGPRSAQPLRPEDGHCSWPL
# procedure.details: cell-based or functional assay
value.kind: ED50 of NFAT luciferase luminescence, Promega PD-1/PD-L1 bioassay (µg/mL)
Answer with a number only, understood to be in µg/mL.

Below are worked cases with known answers.
binder	value.measured
HHLD (antibody, human IgG4 S228P, kappa, V domains shown, also called humanized anti-PD1 variant HH heavy chain + LD light chain) VH: QIQLVQSGSELKKPGASVKVSCKASGYTFTHYAMNWVRQAPGQGLEWMGWINTNTGEPTYAQGFTGRFVFSLDTSVSTAYLQISSLKAEDTAVYYCAREREPGMDHWGQGTLVTVSS VL: DVVMTQSPLSLPVTLGQPASISCRSSQSLVHANTNTYLEWYQQRPGQSPRLLIYKVSNRFSGVPDRFSGSGSGTDFTLKISRVEAEDVGVYYCFQGTHVPNTFGQGTKLEIKR	0.54
HGLD (antibody, human IgG4 S228P, kappa, V domains shown, also called humanized anti-PD1 variant HG heavy chain + LD light chain) VH: QIQLVQSGSELKKPGASVKVSCKASGYTFTHYAMNWVRQAPGQGLEWMGWINTNTGEPTYAQGFTGRFVFSLDTSVSTAYLQISSLKAEDTAVYYCAREREPGMESWGQGTLVTVSS VL: DVVMTQSPLSLPVTLGQPASISCRSSQSLVHANTNTYLEWYQQRPGQSPRLLIYKVSNRFSGVPDRFSGSGSGTDFTLKISRVEAEDVGVYYCFQGTHVPNTFGQGTKLEIKR	1.16

Entry under review: HCLD (antibody, human IgG4 S228P, kappa, V domains shown, also called humanized anti-PD1 variant HC heavy chain + LD light chain) VH: QIQLVQSGSELKKPGASVKVSCKASGYTFTHYAMNWVRQAPGQGLEWMGWINTNTGEPTYAQGFTGRFVFSLDTSVSTAYLQISSLKAEDTAVYYCAREREPGMDSWGQGTLVTVSS VL: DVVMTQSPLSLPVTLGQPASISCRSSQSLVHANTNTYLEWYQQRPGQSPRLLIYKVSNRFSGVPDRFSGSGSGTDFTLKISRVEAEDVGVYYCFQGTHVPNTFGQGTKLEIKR . Reported ED50 of NFAT luciferase luminescence, Promega PD-1/PD-L1 bioassay?
0.41
